testedSystem: Human immunodeficiency virus type 1 integrase (Human immunodeficiency virus 1, UniProt Q7ZJM1)
protocolSummary: Inhibition of HIV-1 integrase-mediated 3'-processing activity using [32P]-labeled oligonucleotide as substrate after 2 hrs by densitometric analysis
observedProperty: pIC50
In textbook form, pIC50 equals minus log to base ten of the concentration in mol/L.

O=C(NCc1ccc(F)c(Cl)c1)c1c(O)c2cccnc2[nH]c1=O    3.90
O=C(NCc1ccc(F)c(F)c1)c1c(O)c2cccnc2n(O)c1=O    5.44

Given O=C(NCc1ccc(F)c(F)c1)c1c(O)c2cccnc2[nH]c1=O , respond with its pIC50.
4.03

###

The entries below come with measured CC50 values attached.
System: HOS
protocolSummary: Cytotoxicity against HOS cells assessed as reduction in ATP level after 48 hrs by luciferase reporter gene assay
Type: cell-based
runConditions: human

Completed entries (count: 4):
O=C(NCc1ccc(F)c(Cl)c1)c1cc2cccnc2n(O)c1=O    > 250 µM
O=C(NCc1ccc(F)c(F)c1)c1c(O)c2cccnc2n(O)c1=O    192 µM
O=C(NCc1ccc(F)c(Cl)c1)c1c(O)c2cccnc2n(O)c1=O    102 µM
O=C(NCc1ccc(F)cc1F)c1cc2cccnc2n(O)c1=O    > 250 µM

Give measured CC50 for O=C(NCc1ccc(F)cc1F)c1c(O)c2cccnc2n(O)c1=O (HOS).
137 µM

Give measured CC50 for Cc1nnc(C(=O)NC(C)(C)c2nc(C(=O)NCc3ccc(F)cc3)c(O)c(=O)n2C)o1 (HOS).
> 100 µM

Give measured CC50 for O=C(NCc1ccc(F)c(F)c1)c1cc2cccnc2n(O)c1=O (HOS).
> 250 µM

###

testedSystem: Human immunodeficiency virus type 1 integrase (Human immunodeficiency virus 1)
protocolSummary: Inhibition of HIV-1 integrase-mediated strand transfer activity using [32P]-labeled oligonucleotide as substrate after 2 hrs by densitometric analysis
The entries below come with measured pIC50 values attached.
In textbook form, pIC50 equals minus log to base ten of the concentration in mol/L.

Completed entries (count: 3):
O=C(NCc1ccc(F)c(F)c1)c1cc2cccnc2n(O)c1=O    7.77
O=C(NCc1ccc(F)c(F)c1)c1cc2cccc(O)c2n(O)c1=O    6.11
O=C(NCc1ccc(F)c(Cl)c1)c1c(O)c2cccnc2[nH]c1=O    5.11

Given O=C(NCc1ccc(F)c(F)c1)c1c(O)c2cccnc2[nH]c1=O , respond with its pIC50.
5.09

Given O=C(NCc1ccc(F)c(Cl)c1)c1cc2cccnc2n(O)c1=O , respond with its pIC50.
7.85

Given O=C(NCc1ccc(F)c(Cl)c1)c1c(O)c2cccnc2n(O)c1=O , respond with its pIC50.
7.57

Given O=C(NCc1ccc(F)cc1F)c1c(O)c2cccnc2[nH]c1=O , respond with its pIC50.
5.15

Given O=C(NCc1ccc(F)cc1F)c1cc2cccnc2n(O)c1=O , respond with its pIC50.
7.39

Given O=C(NCc1ccc(F)cc1F)c1cc2ccccc2n(O)c1=O , respond with its pIC50.
4.71

Given O=C(NCc1ccc(F)c(F)c1)c1c(O)c2cccnc2n(O)c1=O , respond with its pIC50.
7.40

Given O=C(NCc1ccc(F)c(Cl)c1)c1cc2cccc(O)c2n(O)c1=O , respond with its pIC50.
6.28

Given O=C(NCc1ccc(F)cc1F)c1c(O)c2cccnc2n(O)c1=O , respond with its pIC50.
7.26

Given O=C(NCc1ccc(F)cc1F)c1cc2cccc(O)c2n(O)c1=O , respond with its pIC50.
4.74

###

System: Human immunodeficiency virus 1
protocolSummary: Antiviral activity against Human immunodeficiency virus 1 harboring integrase Y143R mutant infected in HOS cells preincubated for 3 hrs followed by viral infection measured after 48 hrs by luciferase reporter gene assay
Format: functional, organism-based
runConditions: Human immunodeficiency virus 1, HOS
observedProperty: pEC50
In textbook form, pEC50 equals minus log to base ten of the concentration in mol/L.

Completed entries (count: 4):
O=C(NCc1ccc(F)c(F)c1)c1c(O)c2cccnc2n(O)c1=O    7.35
O=C(NCc1ccc(F)c(Cl)c1)c1c(O)c2cccnc2n(O)c1=O    7.27
O=C(NCc1ccc(F)c(F)c1)c1cc2cccnc2n(O)c1=O    7.40
O=C(NCc1ccc(F)c(Cl)c1)c1cc2cccnc2n(O)c1=O    7.47

Given O=C(NCc1ccc(F)cc1F)c1c(O)c2cccnc2n(O)c1=O , respond with its pEC50.
7.96

###

The entries below come with measured selectivity ratio values attached.
protocolSummary: Selectivity index, ratio of CC50 for HOS cells to EC50 for wild-type Human immunodeficiency virus 1
Hey, just send me the number, nothing else.

O=C(NCc1ccc(F)c(F)c1)c1c(O)c2cccnc2n(O)c1=O    9600
O=C(NCc1ccc(F)c(Cl)c1)c1c(O)c2cccnc2n(O)c1=O    2910

Given O=C(NCc1ccc(F)cc1F)c1c(O)c2cccnc2n(O)c1=O , respond with its selectivity ratio.
22100

###

Test system: Human immunodeficiency virus 1
protocolSummary: Antiviral activity against Human immunodeficiency virus 1 harboring integrase N155H mutant infected in HOS cells preincubated for 3 hrs followed by viral infection measured after 48 hrs by luciferase reporter gene assay
Type: functional, organism-based
runConditions: Human immunodeficiency virus 1, HOS
The entries below come with measured log10 EC50 values attached.
Please be aware that the numbers have been log10-transformed from EC50 in nM.

Given O=C(NCc1ccc(F)c(Cl)c1)c1cc2cccnc2n(O)c1=O , respond with its log10 EC50.
1.95

###

testedSystem: Human immunodeficiency virus type 1 integrase (Human immunodeficiency virus 1, UniProt Q7ZJM1)
protocolSummary: Inhibition of HIV-1 integrase-mediated 3'-processing activity using [32P]-labeled oligonucleotide as substrate after 2 hrs by densitometric analysis
observedProperty: pIC50
In textbook form, pIC50 equals minus log to base ten of the concentration in mol/L.

Completed entries (count: 3):
O=C(NCc1ccc(F)cc1F)c1cc2cccnc2n(O)c1=O    5.21
O=C(NCc1ccc(F)c(Cl)c1)c1cc2cccnc2n(O)c1=O    5.03
O=C(NCc1ccc(F)c(Cl)c1)c1cc2cccc(O)c2n(O)c1=O    4.77

Given O=C(NCc1ccc(F)c(Cl)c1)c1c(O)c2cccnc2n(O)c1=O , respond with its pIC50.
5.33

Given O=C(NCc1ccc(F)cc1F)c1c(O)c2cccnc2n(O)c1=O , respond with its pIC50.
5.92

Given O=C(NCc1ccc(F)c(F)c1)c1cc2cccnc2n(O)c1=O , respond with its pIC50.
4.87

Given O=C(NCc1ccc(F)cc1F)c1cc2cccc(O)c2n(O)c1=O , respond with its pIC50.
4.37

Given O=C(NCc1ccc(F)c(F)c1)c1cc2cccc(O)c2n(O)c1=O , respond with its pIC50.
4.62

###

protocolSummary: Selectivity index, ratio of CC50 for HOS cells to EC50 for wild-type Human immunodeficiency virus 1
The entries below come with measured selectivity ratio values attached.

Completed entries (count: 2):
O=C(NCc1ccc(F)c(F)c1)c1cc2cccnc2n(O)c1=O    > 4030
O=C(NCc1ccc(F)c(Cl)c1)c1cc2cccnc2n(O)c1=O    > 6580

--- query ---
Given O=C(NCc1ccc(F)cc1F)c1cc2cccnc2n(O)c1=O , respond with its selectivity ratio.
> 49000

###

Tested on: Human immunodeficiency virus 1
protocolSummary: Antiviral activity against Human immunodeficiency virus 1 harboring integrase N155H mutant infected in HOS cells preincubated for 3 hrs followed by viral infection measured after 48 hrs by luciferase reporter gene assay
Assay type: functional, organism-based
runConditions: Human immunodeficiency virus 1, HOS
observedProperty: log10 EC50 (log10 of the value in nM)
Please be aware that the numbers have been log10-transformed from EC50 in nM.

Completed entries (count: 4):
O=C(NCc1ccc(F)cc1F)c1c(O)c2cccnc2n(O)c1=O    1.49
O=C(NCc1ccc(F)cc1F)c1cc2cccnc2n(O)c1=O    2.13
O=C(NCc1ccc(F)c(F)c1)c1c(O)c2cccnc2n(O)c1=O    2.28
O=C(NCc1ccc(F)c(Cl)c1)c1c(O)c2cccnc2n(O)c1=O    2.17

--- query ---
Give measured log10 EC50 for O=C(NCc1ccc(F)c(F)c1)c1cc2cccnc2n(O)c1=O (Human immunodeficiency virus 1).
3.34

###

The entries below come with measured IC50 values attached.
testedSystem: Human immunodeficiency virus type 1 integrase (Human immunodeficiency virus 1, UniProt Q7ZJM1)
protocolSummary: Inhibition of HIV-1 integrase-mediated 3'-processing activity using [32P]-labeled oligonucleotide as substrate after 2 hrs by densitometric analysis

COc1cccc2cc(C(=O)NCc3ccc(F)cc3F)c(=O)n(O)c12    > 333 µM

Given O=C(NCc1ccc(F)cc1F)c1c(O)c2cccnc2[nH]c1=O , respond with its IC50.
> 333 µM

Given O=C(NCc1ccc(F)cc1F)c1cc2ccccc2n(O)c1=O , respond with its IC50.
> 333 µM
